Field: IC50. Provide a value for each of the molecules that follow.
Test system: MYB mRNA
Test: Splicing RT-qPCR assay, MYB canonical (CJ) and alternative (AJ) junction mRNA
Format: cell-based, human
Settings: Homo sapiens, 24 h, A673 or K562 cells, 24 hours compound treatment, RT-qPCR; read-out: MYB CJ (IC50, decrease in canonical junction mRNA)
Counter-ions that a name gives are not always drawn.

[Q] What is its IC50 for MYB mRNA? Entry: Cc1cn2cc(NC(=O)c3ccc(N4CCNCC4)c4cn(CC56CC(O)(C5)C6)nc34)cc(F)c2n1 [Compound 414]
[A] 1000 to 10000 nM

[Q] Continue with Cc1cn2cc(NC(=O)c3ccc(N4CCNCC4)c4cn(CCF)nc34)cc(F)c2n1 [Compound 305]
[A] 100 to 1000 nM

[Q] CCNC1CCN(c2ccc(C/N=C3\C=C(F)c4nc(C)cn4C3)c3nn(C)cc23)CC1 [Compound 500] , same question.
[A] > 10000 nM

[Q] And the next one, Cc1cn2cc(NC(=O)c3ccc(N4CCN(C)CC4)c4cc(C)oc34)cc(F)c2n1 [Compound 189] ?
[A] 100 to 1000 nM

[Q] Item: Cc1cn2cc(NC(=O)c3ccc(N4CC[C@@H](N5CCNCC5)C4)c4cn(C)nc34)cc(F)c2n1 [Compound 562, hydrochloride]
[A] 1000 to 10000 nM

[Q] Now the same for CCn1cc2c(N3CC[C@@](C)(NC)C3)ccc(C(=O)Nc3cc(F)c4nc(C)cn4c3)c2n1 [Compound 547]
[A] > 10000 nM

[Q] Also, Cc1cn2cc(NC(=O)c3ccc(N4CCNCC4)c4cc(C)oc34)ncc2n1 [Compound 263] please.
[A] 100 to 1000 nM

[Q] # repeat for Cc1cn2cc(NC(=O)c3ccc(N4CCNCC4)c4cn(C5CC(O)C5)nc34)cc(F)c2n1 (centres unmarked) [Compound 355]
[A] < 100 nM

[Q] Another molecule to check: CCn1cc2c(N3CCN[C@H](C4CC4)C3)ccc(C(=O)Nc3cc(F)c4nc(C)cn4c3)c2n1 [Compound 542]
[A] 100 to 1000 nM

[Q] How about this molecule: Cc1cn2nc(NC(=O)c3ccc(N4CCNCC4)c4cc(C)oc34)nc2c(C)n1 [Compound 264]
[A] > 10000 nM

[Q] Record: CCn1cc2c(N3CCC(CC)(N(C)C)CC3)ccc(C(=O)Nc3cc(F)c4nc(C)cn4c3)c2n1 [Compound 508]
[A] < 100 nM

====

Record set of GI50 for target or system K562 cells.
Where a name gives a salt, the structure may show the parent alone.

[Q] Name the recorded GI50 for CCNC1CCN(c2ccc(C(=O)Nc3cc(F)c4nc(C)cn4c3)c3oc(C)cc23)CC1 [Compound 196] .
[A] < 100 nM

[Q] // query: Cc1cn2cc(NC(=O)c3ccc(N4CC[C@@H](NC56CC(C5)C6)C4)c4cn(C)nc34)cc(F)c2n1 [Compound 568]
[A] 100 to 1000 nM

[Q] What do you get for Cc1cn2cc(NC(=O)c3c(F)cc(N4CC[C@@H](NC5CC5)C4)c4cn(C)nc34)cc(F)c2n1 [Compound 571] ?
[A] 100 to 1000 nM

[Q] Repeat for the following compound: CCn1cc2c(N3CCNCC3)ccc(C(=O)Nc3cn4cc(C)nc4c(Oc4ccccc4)n3)c2n1 [Compound 566]
[A] 100 to 1000 nM

[Q] // repeat for Cc1cn2cc(NC(=O)c3ccc(N4CC[C@@H](NCc5cnc(Cl)nc5)C4)c4cn(C)nc34)cc(F)c2n1 [Compound 573] and report
[A] 1000 to 10000 nM

[Q] Can you check Cc1cn2cc(NC(=O)c3ccc(N4CC[C@@H](N5CCNCC5)C4)c4cn(C)nc34)cc(F)c2n1 [Compound 562, hydrochloride] next?
[A] 1000 to 10000 nM

[Q] What do we get for Cc1cn2cc(NC(=O)c3ccc(C4CCNCC4)c4oc(C)nc34)cc(F)c2n1 [Compound 187] ?
[A] 100 to 1000 nM

[Q] And then CCn1cc2c(N3CCC(N[C@H]4C[C@H](O)C4)CC3)ccc(C(=O)Nc3cc(F)c4nc(C)cn4c3)c2n1 [Compound 560] , what is it?
[A] < 100 nM

[Q] Record: CCn1cc2c(N3CCNCC3)ccc(C(=O)Nc3cc(F)c4ncccc4c3)c2n1 [Compound 575]
[A] 100 to 1000 nM

[Q] Field entry: CCn1cc2c(N3CCNCC3)ccc(C(=O)Nc3cc(F)c4nc(C)c(F)n4c3)c2n1 [Compound 565]
[A] 1000 to 10000 nM

[Q] Another compound to look at: Cc1cn2cc(NC(=O)c3ccc(N4CCNC(C)(C)C4)c4cc(C)oc34)cc(F)c2n1 [Compound 193]
[A] 100 to 1000 nM

[Q] Now this one: Cc1cn2cc(NC(=O)c3ccc(N4CC5NC5C4)c4cn(C)nc34)cc(F)c2n1 (stereo not shown) [Compound 563]
[A] 100 to 1000 nM

[Q] What do we get for CCC1CN(c2ccc(C(=O)Nc3cc(F)c4nc(C)cn4c3)c3oc(C)cc23)CCN1 (stereo not shown) [Compound 192] ?
[A] 100 to 1000 nM

[Q] Repeat with Cc1cn2cc(NC(=O)c3ccc(N4C5CNCC54)c4cn(C)nc34)cc(F)c2n1 (stereo not shown) [Compound 564]
[A] 100 to 1000 nM

[Q] For Cc1cc2c(N3CCNCC3)ccc(C(=O)Nc3cc(F)c4cn(C)nc4c3)c2o1 [Compound 217] then?
[A] 100 to 1000 nM

[Q] Record: Cc1cn2cc(NC(=O)c3ccc(N4CCNC(C)C4)c4cc(C)oc34)cc(F)c2n1 (stereo not shown) [Compound 190]
[A] 100 to 1000 nM

[Q] And then Cc1cn2cc(NC(=O)c3ccc(N(C)C4CCN(C)CC4)c4cc(C)oc34)cc(F)c2n1 [Compound 200] , what is it?
[A] 1000 to 10000 nM

[Q] Repeat for the following compound: Cc1cn2cc(NC(=O)c3ccc(N4CCNC5(CC5)C4)c4cc(C)oc34)cc(F)c2n1 [Compound 194]
[A] 100 to 1000 nM

[Q] One more compound: Cc1cn2cc(NC(=O)c3ccc(C4CCNCC4)c4ccoc34)cc(F)c2n1 [Compound 149]
[A] 100 to 1000 nM

[Q] And the next one, CCn1cc2c(N3CC[C@@H](NC)C3)ccc(C(=O)Nc3cc(Cl)c4nc(C)cn4c3)c2n1 [Compound 556] ?
[A] 100 to 1000 nM

[Q] What about this compound? CCn1cc2c(N3CCC(NC4CC4)C3)cc(F)c(C(=O)Nc3cc(F)c4nc(C)cn4c3)c2n1 (stereo not shown) [Compound 569]
[A] 100 to 1000 nM

[Q] Next compound: Cc1cn2cc(NC(=O)c3ccc(C4CCNCC4)c4cn(C)nc34)cc(F)c2n1 [Compound 208]
[A] 100 to 1000 nM

[Q] Let us now turn to Cc1cn2nc(NC(=O)c3ccc(C4CCNCC4)c4ccoc34)cc(C)c2n1 [Compound 119]
[A] 1000 to 10000 nM

[Q] Another compound: Cc1cn2cc(NC(=O)c3ccc(N4CCNCC4)c4cc(C)oc34)cc(F)c2n1 [Compound 142]
[A] 100 to 1000 nM

[Q] Consider next the compound Cc1cn2nc(NC(=O)c3ccc(C4CCNCC4)c4cc(C)oc34)cc(C)c2n1 [Compound 118] in the same way.
[A] 100 to 1000 nM

====

I'd be grateful if you could share measured IC50 for these entries.
System: MYB mRNA
Test: Splicing RT-qPCR assay, MYB canonical (CJ) and alternative (AJ) junction mRNA
Assay type: cell-based, human
Settings: Homo sapiens, 24 h, A673 or K562 cells, 24 hours compound treatment, RT-qPCR; read-out: MYB CJ (IC50, decrease in canonical junction mRNA)

[Q] So what does the record say about IC50 for Cc1cn2cc(NC(=O)c3ccc(N4CCNCC4)c4cn(C5CC5)nc34)cc(F)c2n1 ?
[A] < 100 nM

[Q] Request: Cc1cn2cc(NC(=O)c3ccc(N4CCNCC4)c4cn(C)nc34)[nH]c(=O)c2n1
[A] 1000 to 10000 nM

[Q] For Cc1cn2cc(NC(=O)c3ccc(N4CCC(N5CCCC5)C4)c4cn(C)nc34)cc(F)c2n1 (centres unmarked) then?
[A] 100 to 1000 nM

[Q] Repeat for the following compound: CCNC1CCN(c2ccc(C(=O)Nc3cc(F)c4nc(C)cn4c3)c3nn(CCOC)cc23)CC1
[A] 100 to 1000 nM

[Q] Check COCc1nc2c(F)cc(NC(=O)c3ccc(N4CCNCC4)c4cn(C)nc34)cc2o1 too.
[A] 1000 to 10000 nM

[Q] Then what about the compound Cc1cn2cc(NC(=O)c3ccc(N4CCNCC4)c4c[nH]nc34)cc(Cl)c2n1 ?
[A] 100 to 1000 nM

[Q] Another: CCN1CCC(c2ccc(C(=O)Nc3cc(F)c4nc(C)cn4c3)c3nn(C)cc23)CC1
[A] < 100 nM

[Q] Item: Cc1cn2nc(NC(=O)c3ccc(N4CCNCC4)c4cn(C)nc34)cc2c(C)n1
[A] > 10000 nM

[Q] How about this compound: CCC1CN(c2ccc(C(=O)Nc3cc(F)c4nc(C)cn4c3)c3oc(C)cc23)CCN1 (centres unmarked)
[A] 100 to 1000 nM

[Q] Also check CCn1cc2c(N3CC[C@@H](NC)C3)cc(OC)c(C(=O)Nc3cc(F)c4nc(C)cn4c3)c2n1
[A] > 10000 nM

[Q] Another compound: Cc1cn2cc(NC(=O)c3ccc(N4CC[C@@H](N5CCOCC5)C4)c4cn(C)nc34)cc(F)c2n1
[A] 100 to 1000 nM

meta.source: patent US20250154169A1
